Just for reference, paper PMC13083842 is where these values come from.

system_under_test: interleukin-6 (IL-6) (human, UniProt P05231 30-212)
Sequence (P05231 30-212): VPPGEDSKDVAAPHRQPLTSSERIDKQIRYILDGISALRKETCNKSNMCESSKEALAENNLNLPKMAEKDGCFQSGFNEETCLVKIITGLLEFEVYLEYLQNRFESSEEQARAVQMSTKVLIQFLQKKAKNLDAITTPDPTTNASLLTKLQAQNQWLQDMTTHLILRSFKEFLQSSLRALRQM
procedure_text: SPR
pKd: −log10 of the molar value.
The following binders are listed with their measured pKd values.

# example entries with known answers
siltuximab-TGN 1:1 (antibody, V domains shown, Tris-GalNAc-PEG5 (TGN) on accessible primary amines (lysines), not site-specific; coupling ratio 1:1; GPR = 0.2 for the antibody | Tris-GalNAc-PEG5 (TGN) on accessible primary amines (lysines), not site-specific; coupling ratio 1:1; GPR = 0.2 for the antibody) VH: EVQLVESGGKLLKPGGSLKLSCAASGFTFSSFAMSWFRQSPEKRLEWVAEISSGGSYTYYPDTVTGRFTISRDNAKNTLYLEMSSLRSEDTAMYYCARGLWGYYALDYWGQGTSVTVSS VL: QIVLIQSPAIMSASPGEKVTMTCSASSSVSYMYWYQQKPGSSPRLLIYDTSNLASGVPVRFSGSGSGTSYSLTISRMEAEDAATYYCQQWSGYPYTFGGGTKLEIK = > 10.72
siltuximab-TGN 1:5 (antibody, V domains shown, Tris-GalNAc-PEG5 (TGN) on accessible primary amines (lysines), not site-specific; coupling ratio 1:5 | Tris-GalNAc-PEG5 (TGN) on accessible primary amines (lysines), not site-specific; coupling ratio 1:5) VH: EVQLVESGGKLLKPGGSLKLSCAASGFTFSSFAMSWFRQSPEKRLEWVAEISSGGSYTYYPDTVTGRFTISRDNAKNTLYLEMSSLRSEDTAMYYCARGLWGYYALDYWGQGTSVTVSS VL: QIVLIQSPAIMSASPGEKVTMTCSASSSVSYMYWYQQKPGSSPRLLIYDTSNLASGVPVRFSGSGSGTSYSLTISRMEAEDAATYYCQQWSGYPYTFGGGTKLEIK = > 10.57
siltuximab (antibody, V domains shown) VH: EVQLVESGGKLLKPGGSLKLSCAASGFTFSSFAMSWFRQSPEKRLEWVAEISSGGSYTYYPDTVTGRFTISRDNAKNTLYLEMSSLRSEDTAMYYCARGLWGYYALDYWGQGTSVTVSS VL: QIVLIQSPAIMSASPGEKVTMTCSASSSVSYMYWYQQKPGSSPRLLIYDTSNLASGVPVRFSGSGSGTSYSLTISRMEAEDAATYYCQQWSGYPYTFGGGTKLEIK = > 10.66

Could you now consider this next binder?
Need pKd of siltuximab-TGN 1:10 (antibody, V domains shown, Tris-GalNAc-PEG5 (TGN) on accessible primary amines (lysines), not site-specific; coupling ratio 1:10 | Tris-GalNAc-PEG5 (TGN) on accessible primary amines (lysines), not site-specific; coupling ratio 1:10) VH: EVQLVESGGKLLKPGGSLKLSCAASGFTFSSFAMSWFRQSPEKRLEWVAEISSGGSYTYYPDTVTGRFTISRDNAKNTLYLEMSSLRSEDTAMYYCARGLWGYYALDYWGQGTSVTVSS VL: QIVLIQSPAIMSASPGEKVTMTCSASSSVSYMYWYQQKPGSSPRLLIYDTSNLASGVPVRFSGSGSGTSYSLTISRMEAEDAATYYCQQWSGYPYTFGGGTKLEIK , thanks.
> 10.44
